- tested_on: T1, Trop-2-mFc (human, UniProt P09758 27-274)
- T1 construct: Made in-house by 四川科伦博泰; Coated at 1 μg/ml on the ELISA plate; also called 配体Trop-2-mFc
- T1 sequence (looked up): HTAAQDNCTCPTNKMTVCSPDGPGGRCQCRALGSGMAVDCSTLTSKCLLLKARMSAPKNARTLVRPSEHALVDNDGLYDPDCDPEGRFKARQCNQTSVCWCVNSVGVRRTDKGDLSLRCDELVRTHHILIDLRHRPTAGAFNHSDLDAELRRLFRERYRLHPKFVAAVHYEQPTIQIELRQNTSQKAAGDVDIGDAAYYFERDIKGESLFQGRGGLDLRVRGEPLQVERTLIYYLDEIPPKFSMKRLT
- method: ELISA, Trop-2-mFc coated at 1 μg/ml, detection with HRP-anti human IgG(H+L)
Form field: pEC50 (one value per entry).
Worth noting: pEC50 values are minus log10 of concentrations stated in mol/L.

Field: example entries. Status: answers known.
binder | pEC50
Sacituzumab抗体 (antibody, V domains shown) VH: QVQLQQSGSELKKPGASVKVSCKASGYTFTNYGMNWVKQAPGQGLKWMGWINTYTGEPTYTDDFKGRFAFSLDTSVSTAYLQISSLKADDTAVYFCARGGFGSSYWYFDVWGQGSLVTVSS VL: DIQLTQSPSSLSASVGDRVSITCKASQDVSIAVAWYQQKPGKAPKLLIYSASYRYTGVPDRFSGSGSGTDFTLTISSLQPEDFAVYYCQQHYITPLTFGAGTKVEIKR | 7.88
疏水性改造TROP-2抗体M2 (antibody, human IgG1, kappa, V domains shown, Humanized anti-Trop-2 antibody derived from Sacituzumab by hydrophilic CDR mutations; expressed in CHO-S cells, purified on protein A) VH: QVQLQQSGSELKKPGASVKVSCKASGYTFTNYGMNWVKQAPGQGLKWMGWINTDSGEPTYTDDFKGRFAFSLDTSVSTAYLQISSLKADDTAVYFCARGGFGSSYWYFDVWGQGSLVTVSS VL: DIQLTQSPSSLSASVGDRVSITCKASQDVSSAVAWYQQKPGKAPKLLIYSASYRYTGVPDRFSGSGSGTDFTLTISSLQPEDFAVYYCQQHYITPLTFGAGTKVEIKR | 7.86

Fill in: pEC50 of 疏水性改造TROP-2抗体M3 (antibody, human IgG1, kappa, V domains shown, Humanized anti-Trop-2 antibody derived from Sacituzumab by hydrophilic CDR mutations; expressed in CHO-S cells, purified on protein A) VH: QVQLQQSGSELKKPGASVKVSCKASGYTFTNYGMNWVKQAPGQGLKWMGWINTDSGEPTYTDDFKGRFAFSLDTSVSTAYLQISSLKADDTAVYFCARGGFGSSYWYFDVWGQGSLVTVSS VL: DIQLTQSPSSLSASVGDRVSITCKASQDVSIAVAWYQQKPGKAPKLLIYSASYRYTGVPDRFSGSGSGTDFTLTISSLQPEDFAVYYCQQHYSTPLTFGAGTKVEIKR is ___
7.97

Okay, and 疏水性改造TROP-2抗体M1 (antibody, human IgG1, kappa, V domains shown, Humanized anti-Trop-2 antibody derived from Sacituzumab by hydrophilic CDR mutations; expressed in CHO-S cells, purified on protein A) VH: QVQLQQSGSELKKPGASVKVSCKASGYTFTNYGMNWVKQAPGQGLKWMGWINTDSGEPTYTDDFKGRFAFSLDTSVSTAYLQISSLKADDTAVYFCARGGFGSSYWYFDVWGQGSLVTVSS VL: DIQLTQSPSSLSASVGDRVSITCKASQDVSSAVAWYQQKPGKAPKLLIYSASYRYTGVPDRFSGSGSGTDFTLTISSLQPEDFAVYYCQQHYSTPLTFGAGTKVEIKR ?
8.00
